- Test system: Escherichia coli ATCC 25922
- Assay type: cell-based
- TEST_CONDITIONS: ATCC 25922
- Method: Stock solutions were kept at +4° C., light protected. The selective antimicrobial activities of the peptides were determined in 96-well plates (Greiner, polystyrene) by the standard NCCLS broth microdilution method (National Committee for Clinical Laboratory Standards 1993. Methods for dilution antimicrobial susceptibility tests for bacteria that grow aerobically, 3rd ed. Approved standard M7-A6; National Committee for Clinical laboratory standards, Wayne, Pa.) with slight modifications. […]
Where a SMILES comes first, the peptide text is derived from it. Bridges are numbered along the chain shown (N, C = ends). [ ]: non-standard residue; d: D form. Tle = CC(C)(C)[C@H](N)C(=O)O; dDab = NCC[C@@H](N)C(=O)O; hCys = N[C@@H](CCS)C(=O)O; Dab = NCC[C@H](N)C(=O)O; Dap = NC[C@H](N)C(=O)O
ASSAY_READOUT: Escherichia coli ATCC 25922 MIC (µg/mL)
Give the number; µg/mL is assumed, so skip it.

Input: Write down measured Escherichia coli ATCC 25922 MIC (Escherichia coli ATCC 25922) for this molecule. CC(C)[C@@H]1NC(=O)[C@@H]2CCCN2C(=O)[C@H]2CCCN2C(=O)[C@H](CO)NC(=O)[C@@H]2CSSCC[C@H](NC1=O)C(=O)N[C@@H](Cc1ccc(O)cc1)C(=O)N[C@@H](CCN)C(=O)N[C@@H](CN)C(=O)N[C@H](CCN)C(=O)N[C@@H](CCN)C(=O)N[C@@H](Cc1c[nH]c3ccccc13)C(=O)N[C@@H](CCN)C(=O)N[C@@H](C(C)(C)C)C(=O)N2 [Example 39] (cyclo(V[hCys]Y[Dab][Dap][dDab][Dab]W[Dab][Tle]CS[dP]P); disulfide 2-11)
Output: 1

====

- System: Escherichia coli ATCC 25922
- Format: cell-based
- TEST_CONDITIONS: ATCC 25922
Where a SMILES comes first, the peptide text is derived from it. Bridges are numbered along the chain shown (N, C = ends). [ ]: non-standard residue; d: D form. Tle = CC(C)(C)[C@H](N)C(=O)O; dDab = NCC[C@@H](N)C(=O)O; Orn = NCCC[C@H](N)C(=O)O; Dab = NCC[C@H](N)C(=O)O; Dap = NC[C@H](N)C(=O)O
Field: Escherichia coli ATCC 25922 MIC. Provide a value for each of the compounds that follow.
Give the number; µg/mL is assumed, so skip it.

Input: Report measured Escherichia coli ATCC 25922 MIC; entry is CC(C)C[C@@H]1NC(=O)[C@@H]2CCCN2C(=O)[C@H]2CCCN2C(=O)[C@H](CO)NC(=O)[C@@H]2CC(=O)NC[C@H](NC1=O)C(=O)N[C@@H](Cc1ccc(O)cc1)C(=O)N[C@@H](CCN)C(=O)N[C@@H](CCCN)C(=O)N[C@H](CCN)C(=O)N[C@@H](CCN)C(=O)N[C@@H](Cc1c[nH]c3ccccc13)C(=O)N[C@@H](CCN)C(=O)N[C@@H](C(C)(C)C)C(=O)N2 [Example 36] (cyclo(L[Dap]Y[Dab][Orn][dDab][Dab]W[Dab][Tle]DS[dP]P); lactam 2-11)
Output: 0.5

Input: Report measured Escherichia coli ATCC 25922 MIC; entry is C[C@@H]1NC(=O)[C@H](C(C)(C)C)NC(=O)[C@H](CCN)NC(=O)[C@H](Cc2c[nH]c3ccccc23)NC(=O)[C@H](CCN)NC(=O)[C@@H](CCN)NC(=O)[C@H](CCCN)NC(=O)[C@H](CCN)NC(=O)[C@H](Cc2ccc(O)cc2)NC(=O)[C@H](CN)NC(=O)[C@H](Cc2ccccc2)NC(=O)[C@H](Cc2ccc(O)cc2)NC(=O)[C@H]2CCCN2C(=O)[C@H](CO)NC1=O [Example 44] (cyclo(AS[dP]YF[Dap]Y[Dab][Orn][dDab][Dab]W[Dab][Tle]))
Output: 0.5

Input: Report measured Escherichia coli ATCC 25922 MIC; entry is CC(C)C[C@@H]1NC(=O)[C@@H]2CCCN2C(=O)[C@H]2CCCN2C(=O)[C@H](CO)NC(=O)[C@@H]2CNC(=O)CC[C@H](NC1=O)C(=O)N[C@@H](Cc1ccc(O)cc1)C(=O)N[C@@H](CCN)C(=O)N[C@@H](CCCN)C(=O)N[C@H](CCN)C(=O)N[C@@H](CCN)C(=O)N[C@@H](Cc1c[nH]c3ccccc13)C(=O)N[C@@H](CCN)C(=O)N[C@@H](C(C)(C)C)C(=O)N2 [Example 34] (cyclo(LEY[Dab][Orn][dDab][Dab]W[Dab][Tle][Dap]S[dP]P); lactam 2-11)
Output: 0.5

====

- Tested on: Klebsiella pneumoniae ATCC 13883
- Format: cell-based
- TEST_CONDITIONS: ATCC 13883
Where a SMILES comes first, the peptide text is derived from it. Bridges are numbered along the chain shown (N, C = ends). [ ]: non-standard residue; d: D form. Tle = CC(C)(C)[C@H](N)C(=O)O; dDab = NCC[C@@H](N)C(=O)O; Orn = NCCC[C@H](N)C(=O)O; Dab = NCC[C@H](N)C(=O)O; Dap = NC[C@H](N)C(=O)O
ASSAY_READOUT: Klebsiella pneumoniae ATCC 13883 MIC (µg/mL)
Give the number; µg/mL is assumed, so skip it.

Input: Write down measured Klebsiella pneumoniae ATCC 13883 MIC (Klebsiella pneumoniae ATCC 13883) for this compound. CC(C)C[C@@H]1NC(=O)[C@@H]2CCCN2C(=O)[C@H]2CCCN2C(=O)[C@H](CO)NC(=O)[C@@H]2CC(=O)NC[C@H](NC1=O)C(=O)N[C@@H](Cc1ccc(O)cc1)C(=O)N[C@@H](CCN)C(=O)N[C@@H](CCCN)C(=O)N[C@H](CCN)C(=O)N[C@@H](CCN)C(=O)N[C@@H](Cc1c[nH]c3ccccc13)C(=O)N[C@@H](CCN)C(=O)N[C@@H](C(C)(C)C)C(=O)N2 [Example 36] (cyclo(L[Dap]Y[Dab][Orn][dDab][Dab]W[Dab][Tle]DS[dP]P); lactam 2-11)
Output: 0.125

====

- Test system: human red blood cells (hRBC)
- MEASUREMENT_NOTES: Hemolysis of human red blood cells
- Type: cell-based
- TEST_CONDITIONS: red cells of human, 1 h, 100
Where a SMILES comes first, the peptide text is derived from it. Bridges are numbered along the chain shown (N, C = ends). [ ]: non-standard residue; d: D form. Tle = CC(C)(C)[C@H](N)C(=O)O; dDab = NCC[C@@H](N)C(=O)O; hCys = N[C@@H](CCS)C(=O)O; NMeA = CN[C@@H](C)C(=O)O; Orn = NCCC[C@H](N)C(=O)O; Dab = NCC[C@H](N)C(=O)O; dAze = O=C(O)[C@H]1CCN1; Dap = NC[C@H](N)C(=O)O
ASSAY_READOUT: Hemolysis at 100 μg/mL (%)
Give the number; % is assumed, so skip it.

Input: Report measured Hemolysis at 100 μg/mL; entry is CC(C)C[C@@H]1NC(=O)[C@H]2CCCN2C(=O)[C@H](CO)NC(=O)[C@H](C)NC(=O)[C@H](C(C)(C)C)NC(=O)[C@H](CCN)NC(=O)[C@H](Cc2c[nH]c3ccccc23)NC(=O)[C@H](CCN)NC(=O)[C@@H](CCN)NC(=O)[C@H](CCCN)NC(=O)[C@H](CCN)NC(=O)[C@H](Cc2ccc(O)cc2)NC(=O)[C@H](CN)NC(=O)[C@H](Cc2ccccc2)NC1=O [Example 42] (cyclo(AS[dP]LF[Dap]Y[Dab][Orn][dDab][Dab]W[Dab][Tle]))
Output: 1

Input: Report measured Hemolysis at 100 μg/mL; entry is CC(C)[C@@H]1NC(=O)[C@H](C)N(C)C(=O)[C@H]2CCCN2C(=O)[C@H](CO)NC(=O)[C@@H]2CSSC[C@H](NC1=O)C(=O)N[C@@H](Cc1ccc(O)cc1)C(=O)N[C@@H](CCN)C(=O)N[C@@H](CN)C(=O)N[C@H](CCN)C(=O)N[C@@H](CCN)C(=O)N[C@@H](Cc1c[nH]c3ccccc13)C(=O)N[C@@H](CCN)C(=O)N[C@@H](C(C)(C)C)C(=O)N2 [Example 9] (cyclo(CS[dP][NMeA]VCY[Dab][Dap][dDab][Dab]W[Dab][Tle]); disulfide 1-6)
Output: 6

Input: Report measured Hemolysis at 100 μg/mL; entry is CC(C)C[C@@H]1NC(=O)[C@@H]2CCCN2C(=O)[C@H]2CCCN2C(=O)[C@H](CO)NC(=O)[C@@H]2CNC(=O)CC[C@H](NC1=O)C(=O)N[C@@H](Cc1ccc(O)cc1)C(=O)N[C@@H](CCN)C(=O)N[C@@H](CCCN)C(=O)N[C@H](CCN)C(=O)N[C@@H](CCN)C(=O)N[C@@H](Cc1c[nH]c3ccccc13)C(=O)N[C@@H](CCN)C(=O)N[C@@H](C(C)(C)C)C(=O)N2 [Example 34] (cyclo(LEY[Dab][Orn][dDab][Dab]W[Dab][Tle][Dap]S[dP]P); lactam 2-11)
Output: 1

Input: Report measured Hemolysis at 100 μg/mL; entry is CC(C)[C@@H]1NC(=O)[C@@H]2CCCN2C(=O)[C@H]2CCCN2C(=O)[C@H](CO)NC(=O)[C@@H]2CSSCC[C@H](NC1=O)C(=O)N[C@@H](Cc1ccc(O)cc1)C(=O)N[C@@H](CCN)C(=O)N[C@@H](CN)C(=O)N[C@H](CCN)C(=O)N[C@@H](CCN)C(=O)N[C@@H](Cc1c[nH]c3ccccc13)C(=O)N[C@@H](CCN)C(=O)N[C@@H](C(C)(C)C)C(=O)N2 [Example 39] (cyclo(V[hCys]Y[Dab][Dap][dDab][Dab]W[Dab][Tle]CS[dP]P); disulfide 2-11)
Output: 2

Input: Report measured Hemolysis at 100 μg/mL; entry is CC(C)[C@@H]1NC(=O)[C@@H]2CCCN2C(=O)[C@H]2CCN2C(=O)[C@H]([C@@H](C)O)NC(=O)[C@H](CO)NC(=O)[C@H](C(C)(C)C)NC(=O)[C@H](CCN)NC(=O)[C@H](Cc2c[nH]c3ccccc23)NC(=O)[C@H](CCN)NC(=O)[C@@H](CCN)NC(=O)[C@H](CN)NC(=O)[C@H](CCN)NC(=O)[C@H](Cc2ccc(O)cc2)NC(=O)[C@H](CN)NC1=O [Example 41] (cyclo([Dab][Dap][dDab][Dab]W[Dab][Tle]ST[dAze]PV[Dap]Y))
Output: 1

All figures here come from patent US10259847B2.
